Measured values drawn from patent US10409869B2 for this set.

- Assay Explanation: Serum chemistry in monkeys, 2 mg/kg 30-min IV infusion
- Format: in vivo, Cynomolgus monkeys
- Experimental Context: male, Day 1 (pre-dose)
Listing of entries alongside the reported BUN.
Give just the number in mM; leave the unit off.

Input C[C@@H](OP(=O)(N1CC1)N1CC1)c1ccc([N+](=O)[O-])c(Oc2cccc(C(=O)N(C)C)c2)c1 (single isomer, unassigned) [TH3423] . Output BUN: 3.47

New cases:
The compound listed as C[C@H](OP(=O)(N1CC1)N1CC1)c1ccc([N+](=O)[O-])c(Oc2cccc(C(=O)N(C)C)c2)c1 (single isomer, unassigned) [TH3424] shows BUN equal to 4.89
